Provenance of the data: paper PMC7206614

# TARGET_UNDER_TEST: GlyT2 (Homo sapiens)
# Sequence (Q9Y345 whole entry): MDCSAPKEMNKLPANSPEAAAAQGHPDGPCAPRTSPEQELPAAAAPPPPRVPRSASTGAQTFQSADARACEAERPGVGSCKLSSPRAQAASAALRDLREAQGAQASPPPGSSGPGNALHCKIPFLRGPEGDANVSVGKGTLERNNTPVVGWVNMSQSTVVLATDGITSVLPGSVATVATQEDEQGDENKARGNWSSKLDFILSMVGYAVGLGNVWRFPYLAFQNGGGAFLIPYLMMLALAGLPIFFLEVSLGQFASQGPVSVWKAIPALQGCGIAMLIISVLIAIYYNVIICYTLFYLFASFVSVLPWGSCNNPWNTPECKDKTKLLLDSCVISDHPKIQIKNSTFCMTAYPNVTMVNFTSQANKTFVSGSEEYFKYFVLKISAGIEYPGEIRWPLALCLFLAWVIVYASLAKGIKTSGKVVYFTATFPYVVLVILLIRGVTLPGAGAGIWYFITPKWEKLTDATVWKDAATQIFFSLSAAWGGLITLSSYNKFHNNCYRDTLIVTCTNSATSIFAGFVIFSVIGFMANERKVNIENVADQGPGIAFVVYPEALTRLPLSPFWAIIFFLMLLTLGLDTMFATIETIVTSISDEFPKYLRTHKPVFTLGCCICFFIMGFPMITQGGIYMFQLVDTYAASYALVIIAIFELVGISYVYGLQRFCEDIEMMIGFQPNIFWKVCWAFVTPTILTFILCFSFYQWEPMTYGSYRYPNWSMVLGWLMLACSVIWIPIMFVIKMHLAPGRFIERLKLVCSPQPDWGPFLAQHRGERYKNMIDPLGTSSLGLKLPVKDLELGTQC
# METHOD_NOTES: Two-electrode voltage clamp of glycine transport currents in Xenopus laevis oocytes expressing GlyT2
MEASURED_METRIC: pEC50
pEC50 field: float, defined as -log10 of concentration (mol/L).

GET /values?item= NCC(=O)O &system= GlyT2 (Homo sapiens) returns pEC50: 4.84
